# TARGET OR TEST SYSTEM: C14orf109
# ASSAY METHOD TEXT: pooled miR-30 sensor sort-seq; sequence = guide strand; further: reference of the scale not given here
# PARTICULARS: shRNA
Classification field: rule met = sensor-assay potency score (higher = more potent) at or over -0.4; rule not met = sensor-assay potency score (higher = more potent) under -0.4.

ORDERED RESIDUES: ATGCTCTGTGCAATGGTCCCGA
CLASS NAME: rule not met
//
ORDERED RESIDUES: ATAGGAACAAAAACATCTGTAA
CLASS NAME: rule met
//
ORDERED RESIDUES: AAAAATAACTGTCCACACCCAA
CLASS NAME: rule not met
//
ORDERED RESIDUES: TAACTGCCAAGCATATAGGGAT
CLASS NAME: rule met
//
ORDERED RESIDUES: TTCAAGGAGTGTGTCCATGTGG
CLASS NAME: rule met
//
ORDERED RESIDUES: TTAAAGAGTCACTCAGCTCTGA
CLASS NAME: rule met
//
ORDERED RESIDUES: TACAATCCCACTCCAATCCATC
CLASS NAME: rule not met

====

# TARGET OR TEST SYSTEM: ESR2
# ASSAY METHOD TEXT: pooled miR-30 sensor sort-seq; sequence = guide strand
# PARTICULARS: shRNA
Each entry below lists one item and its recorded sensor-assay potency score (higher = more potent) value.
PROPERTY LABEL: sensor-assay potency score (higher = more potent)

ORDERED RESIDUES: TATCGATTGTACACTGATTTGT
VALUE: -0.431
//
ORDERED RESIDUES: TTTAACTCTCGAAACCTTGAAG
VALUE: -0.511
//
ORDERED RESIDUES: TACAGATGTGATAACTGGCGAT
VALUE: -0.498
//
ORDERED RESIDUES: TTTTTATCGATTGTACACTGAT
VALUE: -0.36
//
ORDERED RESIDUES: TTACAGGTAAGGTGTGTTCTAG
VALUE: -0.694
//
ORDERED RESIDUES: ATCATTAACACCTCCATCCAAC
VALUE: -1.05
//
ORDERED RESIDUES: TTTTATCGATTGTACACTGATT
VALUE: -1.06
//
ORDERED RESIDUES: ATCATGTGTACCAACTCCTTGT
VALUE: -0.273
//
ORDERED RESIDUES: TTCCTTTTCAGTGTCTCTCTGT
VALUE: 0.263
//
ORDERED RESIDUES: TCCAAGTTAGTGACATTGCTGG
VALUE: 0.101
//
ORDERED RESIDUES: AAATATAATCATTATGTCCTTG
VALUE: -0.156
//
ORDERED RESIDUES: TTATGTCCTTGAATGCTTCTTT
VALUE: 0.411
//
ORDERED RESIDUES: TAGCTGGACAAATATAATCATT
VALUE: -1.44
//
ORDERED RESIDUES: TAATCGCTGCAGACAGCGCAGA
VALUE: -1.17
//
ORDERED RESIDUES: TAAAAAAGGCCTTACATCCTTC
VALUE: -0.442

====

Measured sensor-assay potency score (higher = more potent) values are reported for all entries that follow.
# TARGET OR TEST SYSTEM: FCF1
# ASSAY METHOD TEXT: pooled miR-30 sensor sort-seq; sequence = guide strand
# PARTICULARS: shRNA
PROPERTY LABEL: sensor-assay potency score (higher = more potent)

ORDERED RESIDUES: TCTGAGACTAAGCATTCGCTTC
VALUE: -1.06
//
ORDERED RESIDUES: TTTTAATCTATCCTTTTCTTTA
VALUE: -1.02
//
ORDERED RESIDUES: TTATATTGGAAAAATAAGCAGG
VALUE: -0.37
//
ORDERED RESIDUES: TTGGGGAACTTCTCTTTCCTTT
VALUE: -0.569
//
ORDERED RESIDUES: TTCAGCCATTACACAATCGGTT
VALUE: -0.926
//
ORDERED RESIDUES: TTATGCTGAGTTACTCTCTGTA
VALUE: 0.221
//
ORDERED RESIDUES: TTTAGGTTTTAATCTATCCTTT
VALUE: -0.181
